From: patent US20240083896A1

For each record, write down the corresponding [Nav1.8] pIC50.
test.system: human Nav1.8 (Homo sapiens (Human), UniProt Q9Y5Y9)
Sequence (Q9Y5Y9 whole entry): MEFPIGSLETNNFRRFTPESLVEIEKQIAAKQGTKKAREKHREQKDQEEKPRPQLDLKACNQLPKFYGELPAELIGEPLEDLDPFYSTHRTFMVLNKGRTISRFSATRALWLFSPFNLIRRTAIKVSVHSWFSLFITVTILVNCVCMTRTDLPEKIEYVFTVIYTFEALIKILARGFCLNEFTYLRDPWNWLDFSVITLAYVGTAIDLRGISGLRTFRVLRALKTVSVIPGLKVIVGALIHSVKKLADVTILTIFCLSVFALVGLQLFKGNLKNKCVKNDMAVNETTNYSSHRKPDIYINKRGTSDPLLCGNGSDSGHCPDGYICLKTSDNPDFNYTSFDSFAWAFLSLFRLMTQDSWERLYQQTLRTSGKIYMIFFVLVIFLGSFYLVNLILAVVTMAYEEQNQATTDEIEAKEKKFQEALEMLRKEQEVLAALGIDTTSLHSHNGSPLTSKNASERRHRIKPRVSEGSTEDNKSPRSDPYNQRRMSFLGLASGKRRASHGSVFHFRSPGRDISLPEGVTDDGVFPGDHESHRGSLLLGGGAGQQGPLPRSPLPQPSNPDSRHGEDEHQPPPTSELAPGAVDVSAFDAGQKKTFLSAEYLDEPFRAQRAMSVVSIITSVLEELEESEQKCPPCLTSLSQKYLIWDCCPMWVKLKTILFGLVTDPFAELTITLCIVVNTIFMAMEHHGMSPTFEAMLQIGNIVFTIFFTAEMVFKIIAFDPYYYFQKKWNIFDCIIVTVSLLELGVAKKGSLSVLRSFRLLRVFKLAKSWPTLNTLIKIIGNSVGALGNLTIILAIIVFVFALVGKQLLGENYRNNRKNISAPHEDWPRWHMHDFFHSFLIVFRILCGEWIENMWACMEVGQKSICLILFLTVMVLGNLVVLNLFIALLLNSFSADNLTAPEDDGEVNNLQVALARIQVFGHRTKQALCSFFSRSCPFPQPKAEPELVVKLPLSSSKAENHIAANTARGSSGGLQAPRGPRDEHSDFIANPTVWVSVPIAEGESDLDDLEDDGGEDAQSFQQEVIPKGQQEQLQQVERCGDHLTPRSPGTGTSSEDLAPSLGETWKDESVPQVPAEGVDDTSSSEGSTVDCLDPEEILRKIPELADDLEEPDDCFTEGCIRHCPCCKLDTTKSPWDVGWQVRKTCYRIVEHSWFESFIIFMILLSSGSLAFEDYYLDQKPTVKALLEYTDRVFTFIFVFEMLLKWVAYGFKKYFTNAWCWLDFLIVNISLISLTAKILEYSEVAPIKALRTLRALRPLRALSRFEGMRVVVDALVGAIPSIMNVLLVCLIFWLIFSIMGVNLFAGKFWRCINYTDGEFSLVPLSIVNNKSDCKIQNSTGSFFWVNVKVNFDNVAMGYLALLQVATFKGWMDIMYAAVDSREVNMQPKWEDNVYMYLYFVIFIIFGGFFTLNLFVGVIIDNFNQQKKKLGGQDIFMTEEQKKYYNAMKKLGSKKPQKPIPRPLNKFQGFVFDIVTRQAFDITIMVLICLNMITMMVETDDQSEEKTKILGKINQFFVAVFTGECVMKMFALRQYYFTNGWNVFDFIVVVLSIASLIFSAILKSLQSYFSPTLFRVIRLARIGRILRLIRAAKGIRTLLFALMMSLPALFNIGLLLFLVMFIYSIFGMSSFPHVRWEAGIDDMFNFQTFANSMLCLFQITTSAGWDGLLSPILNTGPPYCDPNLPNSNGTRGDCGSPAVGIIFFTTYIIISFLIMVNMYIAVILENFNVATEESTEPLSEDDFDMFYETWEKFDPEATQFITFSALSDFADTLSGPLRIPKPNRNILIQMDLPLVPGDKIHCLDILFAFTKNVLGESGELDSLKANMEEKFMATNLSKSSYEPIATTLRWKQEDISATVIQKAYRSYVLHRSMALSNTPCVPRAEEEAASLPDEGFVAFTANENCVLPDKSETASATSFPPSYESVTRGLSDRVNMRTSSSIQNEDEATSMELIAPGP
Sequence (Q07699 19-218 partner): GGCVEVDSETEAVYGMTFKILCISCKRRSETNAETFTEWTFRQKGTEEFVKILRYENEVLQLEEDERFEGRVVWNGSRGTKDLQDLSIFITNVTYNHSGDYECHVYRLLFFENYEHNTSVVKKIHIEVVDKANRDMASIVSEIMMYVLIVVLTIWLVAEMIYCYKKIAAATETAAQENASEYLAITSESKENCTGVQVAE
procedure.details: QPatch 48 HTX electrophysiology assay, half inactivation state voltage protocol (V1/2), HEK293-Nav1.8 cells
Format: cell-based
stated.conditions: HEK293 cells expressing human Nav1.8, human Navβ1 and human TREK1; V1/2 protocol, P2 current; IC50 in molar; average where more than one run

Name the recorded [Nav1.8] pIC50 of the compound listed here: Cc1cc(OC(F)(F)F)ccc1N1CN(c2cc(F)c(=O)[nH]c2C)C(=O)c2cc(C(F)(F)F)ncc21
7.4

Name the recorded [Nav1.8] pIC50 of the compound listed here: Cc1cc(F)ccc1N1CN(c2cc(F)c(=O)[nH]c2C)C(=O)c2cc(C(F)(F)F)ncc21
6.5

Name the recorded [Nav1.8] pIC50 of the compound listed here: Cc1cc(F)ccc1N1CN(c2ccc(=O)[nH]c2C)C(=O)c2cnc(Cl)cc21
6.6

Name the recorded [Nav1.8] pIC50 of the compound listed here: CCc1cc(F)ccc1N1CN(c2ccc(=O)[nH]c2C)C(=O)c2cnc(C(F)(F)F)cc21
7.1

###

test.system: human Nav1.8 (Homo sapiens (Human), UniProt Q9Y5Y9)
procedure.details: QPatch 48 HTX electrophysiology assay, half inactivation state voltage protocol (V1/2), HEK293-Nav1.8 cells
Assay type: cell-based
stated.conditions: HEK293 cells expressing human Nav1.8, human Navβ1 and human TREK1; V1/2 protocol, P2 current; IC50 in molar; average where more than one run
Label MET when [Nav1.8] pIC50 >= 7; otherwise NOT MET.

I'd appreciate it if you could say whether Cc1cc(F)ccc1N1CN(c2ccc(=O)[nH]c2C)C(=O)c2cnc(C#N)cc21 has [Nav1.8] pIC50 at least equal to 7.
NOT MET

I'd appreciate it if you could say whether Cc1cc(F)ccc1N1CN(c2ccc(=O)[nH]c2C)C(=O)c2cc(C#N)ncc21 has [Nav1.8] pIC50 at least equal to 7.
NOT MET

I'd appreciate it if you could say whether Cc1cc(OC(F)(F)F)ccc1N1CN(c2ccc(=O)[nH]c2C)C(=O)c2cc(C(F)(F)F)ncc21 has [Nav1.8] pIC50 at least equal to 7.
MET

I'd appreciate it if you could say whether Cc1cc(F)ccc1N1CN(c2ccc(=O)[nH]c2C)C(=O)c2cnc(C(F)(F)F)nc21 has [Nav1.8] pIC50 at least equal to 7.
NOT MET

###

For each record, write down the corresponding [Nav1.8] pIC50.
test.system: human Nav1.8 (Homo sapiens (Human), UniProt Q9Y5Y9)
procedure.details: QPatch 48 HTX electrophysiology assay, half inactivation state voltage protocol (V1/2), HEK293-Nav1.8 cells
Format: cell-based
stated.conditions: HEK293 cells expressing human Nav1.8, human Navβ1 and human TREK1; V1/2 protocol, P2 current; IC50 in molar; average where more than one run
Method: Human embryonic kidney 293 cells (HEK293) expressing human Nav1.8, human Navβ1 and human TREK1 (HEK293-Nav1.8) were grown at 37° C., 5% CO2 in 150 cm^2 flasks. HEK293-Nav1.8 were passaged every 2-3 days into T175 cell culture flasks when confluency reached 80-90%. […] To assess current run-down over the course of the experiment vehicle-only wells were utilized and the normalized current with vehicle-only (n.IVEH) was determined. […]

Report measured [Nav1.8] pIC50 on human Nav1.8 (Homo sapiens (Human), UniProt Q9Y5Y9); entry: Cc1[nH]c(=O)ccc1N1CN(c2ccc(F)c(F)c2C)c2cnc(C(F)(F)F)cc2C1=O
7.2

Report measured [Nav1.8] pIC50 on human Nav1.8 (Homo sapiens (Human), UniProt Q9Y5Y9); entry: Cc1cc(F)ccc1N1CN(c2ccc(=O)[nH]c2C)C(=O)c2ncc(C(F)(F)F)nc21
5.4

Report measured [Nav1.8] pIC50 on human Nav1.8 (Homo sapiens (Human), UniProt Q9Y5Y9); entry: Cc1cc(F)ccc1N1CN(c2ccc(=O)[nH]c2C)C(=O)c2ncc(C(F)(F)F)cc21
5.9

Report measured [Nav1.8] pIC50 on human Nav1.8 (Homo sapiens (Human), UniProt Q9Y5Y9); entry: Cc1[nH]c(=O)ccc1N1CN(c2ccc(F)cc2C(C)C)c2ccc(Cl)nc2C1=O
5.8

Report measured [Nav1.8] pIC50 on human Nav1.8 (Homo sapiens (Human), UniProt Q9Y5Y9); entry: Cc1cc(F)ccc1N1CN(c2ccc(=O)[nH]c2C)C(=O)c2ccncc21
5.3

Report measured [Nav1.8] pIC50 on human Nav1.8 (Homo sapiens (Human), UniProt Q9Y5Y9); entry: Cc1[nH]c(=O)ccc1N1CN(c2ccc(F)cc2C(C)C)c2cnc(C(F)(F)F)cc2C1=O
7.2

###

For each record, write down the corresponding [Nav1.8] pIC50.
test.system: human Nav1.8 (Homo sapiens (Human), UniProt Q9Y5Y9)
procedure.details: QPatch 48 HTX electrophysiology assay, half inactivation state voltage protocol (V1/2), HEK293-Nav1.8 cells
Assay type: cell-based
stated.conditions: HEK293 cells expressing human Nav1.8, human Navβ1 and human TREK1; V1/2 protocol, P2 current; IC50 in molar; average where more than one run
// no unit, no text: just the number

Name the recorded [Nav1.8] pIC50 of the compound listed here: Cc1[nH]c(=O)ccc1N1CN(c2ccc(F)cc2C(C)C)c2cnc(Cl)cc2C1=O [Example 3]
7

Name the recorded [Nav1.8] pIC50 of the compound listed here: Cc1cc(F)ccc1N1CN(c2ccc(=O)[nH]c2C)C(=O)c2cnc(C(F)(F)F)cc21 [Example 4]
6.8

Name the recorded [Nav1.8] pIC50 of the compound listed here: CCc1cc(F)ccc1N1CN(c2ccc(=O)[nH]c2C)C(=O)c2cc(C(F)(F)F)ncc21 [Example 14]
7.1

Name the recorded [Nav1.8] pIC50 of the compound listed here: Cc1cc(F)ccc1N1CN(c2ccc(=O)[nH]c2C)C(=O)c2cc(C(F)(F)F)ncc21 [Example 6]
7
